System: VchCAST RNA-guided transposition machinery (E. coli BL21(DE3) host, lacZ target)
protocol-text: relative integration efficiency (T-RL orientation) vs wild-type transposon end (log2 (normalized fold change)); transposon end mutated: right end (5 bp flank + 75 bp right end); higher = more efficient transposition
measured-quantity: relative integration efficiency (log2)
Please respond with just the number, no unit label.

query-sequence	relative integration efficiency (log2)
ACATTTGTTGATACAACCATAAAATGATAATTACACCCATAAATTCATTATTATCACACCCAATTTAACTATAACGCTCTGATCATAGTCAGACCAACATTGCTACGACCCGTATTCGCACCGACAC	-2.74
ACATTTGTTGATACAACCATAAAATGATAATTACACCCATACCGGGATAATTATCACACCCATAAATTGATATTGCCTCTGATCATAGTCAGACCAACATTGCTACGACCCGTATTCGCACCGACAC	-2.21
ACATTTGTTCATCCAACCATAAAATGATAATTACACCCATAAATTCATAATTATCACACCCAATTTAACTATAACGCTCTGATCATAGTCAGACCAACATTGCTACGACCCGTATTCGCACCGACAC	-2.84

Could you now look at the following sequence, please?
Task item: For VchCAST RNA-guided transposition machinery (E. coli BL21(DE3) host, lacZ target), provide relative integration efficiency (log2) of ACATTTGTTGATACAACCATAAAATCATCATTACCCCCATCAATTGATAATTATCCCACCCCATTTAACTATAACGCTCTGATCATAGTCAGACCAACATTGCTACGACCCGTATTCGCACCGACAC please.
Reply: -5.09
